# credit: PubChem BioAssay AID493169

Assay: CHOP2 Reporter Counterscreen Assay for Inhibitors of Ubiquitin-specific Protease USP2a
Details: purified enterokinase, fluorogenic substrate, 485/531 nm; series mostly up to 38.3 µM
Inconclusive results are not listed. Activity calls are given as the source filed them. Calls follow the shape of the dose curve; as a rule, active = well fitted inhibition curve with a large enough effect; inconclusive = small, poorly fitted or top-dose-only effect; inactive = flat fitted curve, though single readings scatter.
reported_metric: outcome

O=C(O)CP(=O)(c1ccccc1)c1ccccc1; inactive
C(=N\N(c1ccccc1)c1ccccc1)/c1ccccn1; inactive
COc1ccc(/C=C\C(=O)O[C@@H]2C(O)C(O[C@@H]3OC(C)[C@H](O[C@@H]4OCC(O[C@H]5O[C@H](CO)[C@@H](O)C(O)C5O)C(O)C4O)C(O)C3O)[C@H](OC(=O)[C@]34CCC(C)(C)C[C@@H]3C3=CCC5[C@@]6(C)CC(O)C(O[C@@H]7OC(CO)C(O)[C@H](O)[C@H]7O)[C@@](C)(C(=O)O)C6CC[C@@]5(C)[C@]3(CO)CC4)O[C@H]2C)cc1 (stereo partly drawn); inactive

====

Experiment: CHOP2 Reporter Counterscreen Assay for Inhibitors of Ubiquitin-specific Protease USP2a
Conditions: purified enterokinase, fluorogenic substrate, 485/531 nm; series mostly up to 38.3 µM
Inconclusive results are not listed. Activity calls are given as the source filed them. Calls follow the shape of the dose curve; as a rule, active = well fitted inhibition curve with a large enough effect; inconclusive = small, poorly fitted or top-dose-only effect; inactive = flat fitted curve, though single readings scatter.
Outcome codes: yes = active, no = inactive

O=C(CN1C(=O)/C(=C2\SC(=S)N(CCS(=O)(=O)O)C2=O)c2ccccc21)Nc1cccc(Br)c1; yes
CCC(C(=O)NCc1ccccc1OC)n1nc(C)n2c(cc3occc32)c1=O (stereo not given); no
O=C(NCCCN1CCCC1=O)c1cccc(N2CCCC2=O)c1; no
Cc1ccc(NC(=O)CCC(=O)OC(C)C(=O)c2ccccc2)cc1 (stereo not given); no
CCOc1ccc(Cn2nnc(C(=O)NCc3ccccc3)c2N)cc1; no

====

Experiment: CHOP2 Reporter Counterscreen Assay for Inhibitors of Ubiquitin-specific Protease USP2a;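 also: activated enterokinase alone at 50 pM in a cell-free format rather than USP2a or CHOP2; nearly all actives have a fitted effect of over 55% in size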
Conditions: purified enterokinase, fluorogenic substrate, 485/531 nm; series mostly up to 38.3 µM
Results filed as inconclusive are left out. Activity calls are given as the source filed them. The call rests on the fitted dose curve; in most records, active means well fitted inhibition curve with a large enough effect; inconclusive means small, poorly fitted or top-dose-only effect; inactive means flat fitted curve, though single readings scatter.
Outcome codes: T (active), F (inactive)

CCOC(=O)Nc1ccc(S(=O)(=O)Nc2cc(C)nc(C)n2)cc1; F
COCCCNC(=O)C1CCN(c2nc(C)cc(C)n2)CC1; F
O=C(Nc1nnc(-c2cccs2)o1)c1cccc(Oc2ccccc2)c1; F
COc1cc2c(C(=O)N3CCN(c4cccc(Cl)c4)CC3)cn(CC(C)C)c(=O)c2cc1OC; F
COC(=O)C1CCN(C(=O)c2cc(-c3ccco3)nc3ccccc23)CC1; T
O=C(CSc1nnc(SCc2ccccc2)s1)N/N=C/C=C/c1ccco1; T
O=C(CSc1nccc(=O)[nH]1)N1N=C2/C(=C/c3ccco3)CCCC2C1c1ccco1 (configuration not stated); T

====

Experiment: CHOP2 Reporter Counterscreen Assay for Inhibitors of Ubiquitin-specific Protease USP2a;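 also: activated enterokinase alone at 50 pM in a cell-free format rather than USP2a or CHOP2; nearly all actives have a fitted effect of over 55% in size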
Conditions: purified enterokinase, fluorogenic substrate, 485/531 nm; series mostly up to 38.3 µM
Records with an inconclusive call do not appear. Active and inactive are the calls of the source. Calls follow the shape of the dose curve; as a rule, active = well fitted inhibition curve with a large enough effect; inconclusive = small, poorly fitted or top-dose-only effect; inactive = flat fitted curve, though single readings scatter.
Outcome codes: true for active, false for inactive

Cc1cnc(N)c2c(=O)oc3ccccc3c12; false
Cc1cccc(N2CCN(C(=O)CCc3nc4ccccc4[nH]3)CC2C)c1 (stereo unspecified); false
COc1cc(-c2nc(-c3ccc4c(c3)-c3ccccc3S4(=O)=O)c(-c3ccccc3)[nH]2)cc(OC)c1O; false
CC(C)c1ccc(NC(=O)C(c2ccc3c(c2)OCO3)N2CCCCC2)cc1 (stereo unspecified); false
CC1CCN(CC(O)COc2cccc(F)c2)CC1 (stereo unspecified); false
CC(C)(C)C1CCC2(CC1)Nc1cccc3cccc(c13)N2; false
CCOC(=O)Cn1c(=O)oc2cc(S(=O)(=O)Nc3cc(Cl)ccc3OC)ccc21; false
C#CCOCCOCCOCCNc1nc(N2CCN(C(=O)CCCCCCCCCCNC(=O)[C@H](CO)n3cc(CCCSC)nn3)CC2)nc(N2CCN(C(=O)CCCCCCCCCCNC(=O)[C@H](CCCN=C(N)N)n3cc(C[C@@H](C)CC)nn3)CC2)n1; true
COC(=O)c1c(N2C(=O)CCC2=O)sc2c1CCCC2; false
O=C(Nc1ccc(S(=O)(=O)Nc2ncccn2)cc1)c1ccc(S(=O)(=O)N2CCCC2)cc1; false
CCCCn1c(SCC(=O)N2CCC(C)CC2)nc2cc(S(N)(=O)=O)ccc21; false
O=C(O)c1cccc(-n2cccc2/C=C2/NC(=O)N(c3ccc(Cl)cc3)C2=O)c1; true
Cc1nc2cc3ccccc3cc2c(=O)[nH]1; false
CCOC(=O)c1c(NC(C)=O)sc2c1CCCNC2=O; false
COc1ccc(/C=C(\NC(=O)c2ccc(OC)c(OC)c2)C(=O)N2CCN(C)CC2)cc1; false
O=C(COC(=O)c1cc(-c2ccc(Cl)s2)nc2ccccc12)NCc1ccco1; true
O=C(/C=N/O)NCc1cccnc1; false
C[C@](N)(Cc1ccc(O)c(O)c1)C(=O)O; false
O=C(N/N=C/c1ccc(-c2ccc(Cl)c(C(=O)O)c2)o1)c1cc2c(ccc3ccccc32)o1; true
Nc1c(C(=O)NCC2CCCO2)sc2nc3c(c(-c4ccco4)c12)CC/C3=C\c1ccco1 (stereo unspecified); true
COC(=O)c1c(O)c2c([nH]c1=O)CCCC2; false

====

Assay: CHOP2 Reporter Counterscreen Assay for Inhibitors of Ubiquitin-specific Protease USP2a;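 also: activated enterokinase alone at 50 pM in a cell-free format rather than USP2a or CHOP2; nearly all actives have a fitted effect of over 55% in size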
Details: purified enterokinase, fluorogenic substrate, 485/531 nm; series mostly up to 38.3 µM
Results filed as inconclusive are left out. Active and inactive are the calls of the source. Calls follow the shape of the dose curve; as a rule, active = well fitted inhibition curve with a large enough effect; inconclusive = small, poorly fitted or top-dose-only effect; inactive = flat fitted curve, though single readings scatter.
Outcome codes: YES = active, NO = inactive

O=C(CSc1ncn[nH]1)Nc1ccc(Br)cc1F; NO
O=C(c1ccccc1)N1CCN(C2C3CC4CC(C3)CC2C4)CC1 (configuration not stated); NO
CCOc1ccc2nc(NC(=O)Nc3ccccc3)sc2c1; NO
CC1CCCCN1CCNC(=O)CC1Oc2ccccc2NC1=O (configuration not stated); NO
Cc1ccc(/C=C/S(=O)(=O)N2CCC(C(=O)O)CC2)cc1; NO
CCC(CO)Oc1cc(NCc2cccc(C)c2)c2ncn(C(C)C)c2c1 (configuration not stated); NO
O=C(CSc1nc2ccccc2s1)NCCCN1CCOCC1; NO
Cc1ccc(OCC(=O)Nc2ccc(N3CCCC3)cc2)cc1C; YES
CC(NC(=O)COc1ccccc1-c1ccccc1)c1ccccc1 (configuration not stated); NO
CCC(=O)c1ccc(OCC(=O)NC2CCN(Cc3ccccc3)CC2)cc1; NO
COc1ccccc1C(=O)n1nc(-c2cccnc2)nc1NCc1ccccc1; YES
CCOC(=O)c1c(C)[nH]c(C(=O)COC(=O)CSC)c1C; NO

====

Assay: CHOP2 Reporter Counterscreen Assay for Inhibitors of Ubiquitin-specific Protease USP2a;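 also: activated enterokinase alone at 50 pM in a cell-free format rather than USP2a or CHOP2; nearly all actives have a fitted effect of over 55% in size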; also: potency is read from the fitted curve at half-maximal effect
Details: purified enterokinase, fluorogenic substrate, 485/531 nm; series mostly up to 38.3 µM
Results filed as inconclusive are left out. Active and inactive are the calls of the source. Calls follow the shape of the dose curve; as a rule, active = well fitted inhibition curve with a large enough effect; inconclusive = small, poorly fitted or top-dose-only effect; inactive = flat fitted curve, though single readings scatter.
reported_metric: Potency

CC1(C)CC(=O)C2=C(C1)N(Cc1ccco1)C(=O)NC2(C(F)(F)F)C(F)(F)F; inactive
O=C1NC[C@@H](c2ccccc2)OC(=O)[C@@H](Cc2ccc(F)cc2)CC/C=C/C[C@@H]1CC(=O)N(CCO)Cc1ccccc1; inactive
NC1=NC2(CCC(c3ccccc3)CC2)n2c(nc3ccccc32)N1 (centres undefined); inactive
COC(=O)[C@@]12CCCCN1[C@H](c1ccc(-c3ccc(Cl)c(Cl)c3)cc1)[C@H]1C(=O)N(C)C(=O)[C@H]12; inactive
CCO[C@H]1OC(C(=O)N2CCCCCCC2)=C[C@@H](c2ccc(C(F)(F)F)cc2)[C@@H]1CCCO; inactive
O=C(CN1CCC(O)CC1)N1c2ccccc2C=Cc2ccccc21; inactive
CC(OC(=O)CN(C)S(=O)(=O)c1ccc(Cl)cc1)C(=O)Nc1ccc(N2CCOCC2)cc1 (centres undefined); inactive
Cc1cc(C)cc(OCC(=O)Nc2ccc(N3CCCC3)cc2)c1; 10 µM (active)
c1coc(CNc2nc(-c3cccs3)cs2)c1; inactive
COC(=O)CSc1nc2c(c(-c3ccco3)c1C#N)CCCC2; inactive
O=C(NC1CCCCC1)C(c1ccco1)N(Cc1ccco1)C(=O)c1ccco1 (centres undefined); inactive
C#CCOCCOCCOCCNc1nc(N2CCN(C(=O)CCCCCCCCCCNC(=O)Cn3cc(CCCCCN)nn3)CC2)nc(N2CCN(C(=O)CCCCCCCCCCNC(=O)[C@H]([C@@H](C)CC)n3cc(CCCCCN)nn3)CC2)n1; 5.62 µM (active)
Cc1ccc(SCC(=O)NCC(C)C)cc1; inactive
Cc1ccc(C(=O)N(C)CC(=O)Nc2cccc(C)c2C)o1; inactive
CC1Cc2ccccc2N1C(=O)Cn1c(=O)oc2cc(S(=O)(=O)NC3CCCC3)ccc21 (centres undefined); inactive
O=C(CSc1nnc(SCc2ccccc2)s1)N/N=C/c1c[nH]c2ccccc12; inactive
O=C(C[n+]1ccc(-c2cc(C(=O)Nc3cccc(C(F)(F)F)c3)c3ccccc3n2)cc1)c1cccc([N+](=O)[O-])c1; inactive
CCOC(=O)N1CCN(C(=O)CN(c2ccc(Oc3ccccc3)cc2)S(C)(=O)=O)CC1; inactive
COc1cc2c(ccc3cc(OC)c(OC)c(O)c32)cc1O; 5.62 µM (active)
